- target.or.system: CD38 NADase (Homo sapiens, UniProt P28907, N100D/N164D/N209D/N219D)
- Construct: pPICZαA carrying the C-terminus of CD38 (AA46-300, with the four glycosylation sites mutated)
- Sequence (P28907 46-300 N100D/N164D/N209D/N219D): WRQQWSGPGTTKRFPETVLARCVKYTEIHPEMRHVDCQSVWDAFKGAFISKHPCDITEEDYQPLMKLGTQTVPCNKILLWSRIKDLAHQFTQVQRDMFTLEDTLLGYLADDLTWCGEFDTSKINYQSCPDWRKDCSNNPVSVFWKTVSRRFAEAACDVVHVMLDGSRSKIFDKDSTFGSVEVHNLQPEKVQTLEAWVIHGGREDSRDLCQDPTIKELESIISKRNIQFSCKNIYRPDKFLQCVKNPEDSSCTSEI
- assay.method.text: Enzyme activity assay: inhibition of the NAD-glycohydrolase (NADase) activity of recombinant CD38 (NAD cycling assay)
- measurement.setup: recombinant CD38 0.3 ng, 2 h preincubation at room temperature, NAD 2.5 µM; read-out: IC50, inhibitory activities of CD38 NADase
property.measured: IC50 (µM)
Your answer should be a plain number; it is taken to be in µM.

Lookup: Please give the measured IC50 for this compound: NC(=O)c1ccc[n+](C2OC(COP(=O)([O-])OP(=O)(O)OP(=O)(O)OCC3OC(n4cnc5c(N)ncnc54)C(O)C3O)C(O)C2F)c1 (stereo not shown)
Found: 1.15

Lookup: Field request: IC50 | item: `NC(=O)c1ccc[n+]([C@@H]2O[C@H](COP(=O)(O)CP(=O)(O)OC[C@H]3O[C@@H]([n+]4cccc(C(N)=O)c4)[C@@H](F)[C@@H]3O)[C@@H](O)[C@@H]2F)c1`
Found: 7.98

Lookup: So what's the measured IC50 for this one? NC(=O)c1ccc[n+]([C@@H]2O[C@H](COP(=O)(O)O)[C@@H](O)[C@@H]2F)c1 [Compound 8, reference compound]
Found: 0.297

Lookup: Request the reported IC50 associated with NC(=O)c1ccc[n+]([C@@H]2O[C@H](COP(=O)([O-])OP(=O)(O)OC[C@H]3O[C@@H](n4cnc5c(N)ncnc54)[C@H](O)[C@@H]3O)[C@@H](O)[C@@H]2F)c1 [Compound 23, reference compound]
Found: 0.0611

Lookup: Which IC50 is reported for this compound? CC1(F)C(O)C(COP(=O)([O-])OP(=O)(O)OCC2OC(n3cnc4c(N)ncnc43)C(O)C2O)OC1[n+]1cccc(C(N)=O)c1 (stereo not shown)
Found: 1810

Lookup: State the recorded IC50 for this entry: NC(=O)c1ccc[n+](C2OC(COP(=O)([O-])OP(=O)(O)OCC3OC(n4cnc5c(=O)[nH]cnc54)C(O)C3O)C(O)C2F)c1 (stereo not shown)
Found: 0.109

Lookup: Quick one: IC50 for NC(=O)c1ccc[n+](C2OC(CSP(=O)(O)OP(=O)([O-])OCC3OC(n4cnc5c(N)ncnc54)C(O)C3O)C(O)C2F)c1 (stereo not shown) ?
Found: 0.341
